measured on: pooled human IgG (human)
test: cell-based or functional assay; note: test concentration or dose not given here
readout type: Enzyme Activity Endpoint Assay (purified): scIgG

1) PRT-198 (enzyme) MEVVEVWPYGQNPNGKTEILSQTEDSESLQRLRDIEDFQAEKKKQGVVYTKWLDGVDVKDHDFRKIVDGNIAYYATPLLNGRGFYDINKDFNRDSDKCAAAVAANMFHYWLDINRDNVDRFLRQNPEKHGIIELPDGQLKLSDFLNTYESDHGYRDKSKLFDFISNNFNGPVWTDKLLDNYINGYAYNYKYGRTIEDPTKNTSKINFFKEVFNEKILTNNHSIRNQNEFSDLLSEALYTGKAIGLSYGPAGLRHSLGHIISVWGADLDADGNVVAIYVTDSDDKKLTIGDERVGLKRYKISTDDENRLRLTAYEETHNTGGQIRGLYTLDTGKQAWADYFDKTEQTGTDQAEQLEHHHHHH | 0 ng/µL
2) PRT-200 (enzyme) MEVVEVWPYGQNPNGKTEILSQTEDSESLQRLRDIEDFQAEKKMQNVVYTKWLDGVDVKDHDFRKIVDGNIAYYATPLLNGRGFYDINKDFNRDSDKCAAAVAANMFHYWLDINRDNVDRFLRQNPEKHGIIELPDGQLKLSDFLNTYESDHGYRDKSKLFDFISNNFNGPVWTDKLLDNYINGYAYNYKYGRTIEDPTKNTSKINFFKEVFNEKILTNNHSIRNQNEFSDLLSEALYTGKAIGLSYGPAGLRHSLGHIISVWGADLDADGNVVAIYVTDSDDKKLTIGDERVGLKRYKISTDDENRARLTAYEETDNTGGQIRGLWTLDTGKQAWADYFDKTEQTGTDQAEQLEHHHHHH | 0 ng/µL
3) PRT-222 (enzyme) MEVVEVWPYGQNPNGKTEILSQTEDSESLQRLRDIEDFQAEKKMQNVVYTKWLDGVDVKDHDFRKIVDGNIAYYATPLLNGRGFYDINKDFNRDSDKCAAAVAANMFHYWLDINRDNVDRFLRQNPEKHGIIELPDGQLKLSDFLNTYESDHGYRDKSKLFDFISNNFNGPVWTDKLLDNYINGYAYNYKYGRTIEDPTKNTSKINFFKEVFNEKILTNNHSIRNQNEFSVLLSEALYTGKAIGLSYGPAGLRHSLGHIISVWGADLDADGNVVAIYVTDSDDKKLTIGDERVGLKRYKISTDDEGRLRLTAYEETHNTGGQIRGLWTLDTGKYAWADYFDKTEQTGTDQAEQLEHHHHHH | 21 ng/µL
